target_desc: insulin (Bos taurus, UniProt P01317)
Construct: 2 NH2-termini (chain A and B), 1 lysine side chain; purchased Sigma-Aldrich, Taufkirchen, FRG
Sequence (P01317 25-54 limits assumed): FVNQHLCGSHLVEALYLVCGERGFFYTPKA
Sequence (P01317 85-105 limits assumed): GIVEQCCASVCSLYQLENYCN
protocol_description: Mean degree of derivatization of insulin with active esters (MALDI-TOF-MS)
Set-up: species or system bovine
condition_parameters: 35 nMoles insulin reacted with 350 nMoles active ester, pH 7.2, 90 min RT; three independent experiments
experimental_endpoint: Mean labelling degree

molecule: O=C(CCCC[C@@H]1SC[C@@H]2NC(=O)N[C@@H]21)NCCCCCC(=O)ON1C(=O)CC(S(=O)(=O)[O-])C1=O.[Na+] (stereo partly drawn) [Sulfo-NHS-LC-biotin, Sulfo-LC-(+)-Biotin]
target_desc: insulin (Bos taurus, UniProt P01317)
Mean labelling degree: 1.72 Mole label: Mole insulin
//
molecule: C[C@]12CC[C@H](OCC(=O)NCCCCCC(=O)ON3C(=O)CCC3=O)C[C@H]1CC[C@@H]1[C@@H]2C[C@@H](O)[C@]2(C)[C@@H](C3=CC(=O)OC3)CC[C@]12O
target_desc: insulin (Bos taurus, UniProt P01317)
Mean labelling degree: 1.50 Mole label: Mole insulin
//
molecule: O=C(COc1ccc(Cl)cc1Cl)NCCCCCCCCCCC(=O)ON1C(=O)CC(S(=O)(=O)[O-])C1=O.[Na+] (stereo not shown)
target_desc: insulin (Bos taurus, UniProt P01317)
Mean labelling degree: 0.38 Mole label: Mole insulin
//
molecule: O=C(COc1ccc(Cl)cc1Cl)ON1C(=O)CCC1=O
target_desc: insulin (Bos taurus, UniProt P01317)
Mean labelling degree: 0.52 Mole label: Mole insulin
//
molecule: O=C1N[C@H]2[C@H](CS[C@H]2CCCCC(=O)ON2C(=O)CC(S(=O)(=O)[O-])C2=O)N1.[Na+] (stereo partly drawn) [Sulfo-NHS-biotin, Sulfo-Succinimidyl-(+)-biotin]
target_desc: insulin (Bos taurus, UniProt P01317)
Mean labelling degree: 1.79 Mole label: Mole insulin

// batch mode: one Mean labelling degree value per listed entry
1. O=C(CCCCCNC(=O)CCCC[C@@H]1SC[C@@H]2NC(=O)N[C@@H]21)NCCCCCC(=O)ON1C(=O)CCC1=O [NHS-SLC-biotin, SLC-NHS-(+)-Biotin]
2. O=C(COc1ccc(Cl)cc1Cl)NCCCCCC(=O)ON1C(=O)CC(S(=O)(=O)[O-])C1=O.[Na+] (stereo not shown)

["0.08 Mole label: Mole insulin", "1.61 Mole label: Mole insulin"]

FYI, the data here is from patent US20090104633A1.
